// cross-source set; read-out = IC50; system = Vascular endothelial growth factor receptor 2 (Homo sapiens, UniProt P35968)

// solved cases for IC50 follow
* COc1cc2nccc(Oc3ccc(NC(=O)c4c5n(c(C)c(C6=CCCCC6)c4=O)CCOC5)cc3)c2nc1OC | > 0.3 µM
* COc1cc(Nc2nc3c(-c4cccc(CN)c4)nccn3n2)cc(OC)c1 | 0.3 to 3 µM
* O=C(c1cc(NS(=O)(=O)c2ccc(Cl)cc2)ccc1F)c1c[nH]c2ncccc12 | ≤ 10 µM
* COCCOc1cc2nccc(Oc3ccc(NC(=O)c4c(C)n(C)c(C)c(/C=C/C5CCCC5)c4=O)cc3F)c2nc1OC | 0.1 to 0.3 µM
* COc1cc2nccc(Oc3ccc4c(C(=O)NC5CC5)c[nH]c4c3)c2cc1C(N)=O | < 0.05 µM

Recorded result, O=C(c1cccc(NS(=O)(=O)c2cccc(Cl)c2)c1)c1c[nH]c2ncc(Cl)cc12 , IC50: ≤ 10 µM

Per the records, this compound ( COc1cc(-c2cc3nccc(-c4ccc(C(=O)O)cc4)c3o2)cc(OC)c1OC ) has IC50 equal to 3 to 50 µM

// recorded IC50 for Cn1cc(-c2cc(Oc3cccc(NC(=O)c4cccc(OC(F)(F)F)c4)c3)ccn2)cn1 : > 10 µM
